Biological target: human MAL (human) (UniProt P58753)
Experiment: P3 phage display panning on plate-immobilised MAL, after round 4, NGS
Parameter: Population. Scope: all listed entries.
MEASURED ENDPOINT: Population

HHKGSYGEALAEHEKR; 1.15%
VEPTQVRKQSGAVENA; 0.86%
SFFWNKLRYHLPAPQH; 0.86%
DWFLSKLSQHILKREK; 1.72%
ESILNQLRRSSQSIAN; 1.38%
LQNQWKLALTKVANLV; 0.86%
NQWRNALTAAANLSGW; 9.71%
DHHLDLPRGKAIKPEILG; 0.86%
YLKWGYPWFWDRLRFA; 0.63%
